Hello, the source for this data is the supplement of paper PMC12042874, in case you need it.

METHOD DESCRIPTION: amyloid nucleation score (Sup35N fusion, yeast selection) (log enrichment); library NNK1; higher = more nucleation; inactive = no reads after selection;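 note: zero at mode of non-aggregating sequences after 7 days selection at 30°C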
Catalogue of sequences with associated amyloid nucleation score
No unit in the answer, please; the number alone is enough.

MONOMER SEQUENCE	ENDPOINT NAME	VALUE
ANALDCINDWDKSSQSCQGP	amyloid nucleation score	0.812
YTYDLYVTSVLNVSRESSHC	amyloid nucleation score	-0.343
CIYSICYFCNS	amyloid nucleation score	7.92
GHVWEQGRQLGSAPKDR	amyloid nucleation score	0.1
LLLTWFFPQHASRVNMSYSS	amyloid nucleation score	0.024

Data request: Entry under review: NDLYVGLDTYYIRHNLTRWF . Reported amyloid nucleation score?
Data returned: 0.447

Data request: Also need IAVNSYASVDTYTSLLIRWL , thanks.
Data returned: 0.993
